System: ATP;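 also: ATP exposure 15 min at 22 °C before imaging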
experimental-details: switch fluorescence ratio, 500 uM ATP over buffer (Cy3 cluster intensity, sum of 5 cycles each) (fold (ratio)); higher = stronger signal-on switching upon ATP binding; sequences stand for … in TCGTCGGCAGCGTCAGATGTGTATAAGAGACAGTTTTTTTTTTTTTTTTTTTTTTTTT…TC
experimental-conditions: aptamer strand: ATP DNA aptamer (quencher-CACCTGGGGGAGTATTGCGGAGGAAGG + anchor), 100 nM annealed; ATP concentration: 500 uM
switch fluorescence ratio vs 1: at or above is yes (1), below is no (0).

Here are 6 sequences together with their reported answers.
{"sequence-chain": "AGAGGCGGGA", "experimental-target": "ATP", "group": "no (0)"}
{"sequence-chain": "AACGGGAGGG", "experimental-target": "ATP", "group": "yes (1)"}
{"sequence-chain": "CCCGGGAAAT", "experimental-target": "ATP", "group": "yes (1)"}
{"sequence-chain": "ACCATGTACT", "experimental-target": "ATP", "group": "yes (1)"}
{"sequence-chain": "CAATTTGCTG", "experimental-target": "ATP", "group": "no (0)"}
{"sequence-chain": "ATTTTTTACA", "experimental-target": "ATP", "group": "yes (1)"}

Determine whether measured switch fluorescence ratio meets or exceeds 1 for `GCGCTATATG`
yes (1)

Quick check, switch fluorescence ratio >= 1? `ACGGCATAAT`
yes (1)

Test whether the sequence `TCCGGGGGAT` records switch fluorescence ratio of 1 or higher.
yes (1)

Textbook exercise: given the entry `TTTTCCGGGC` , state whether its switch fluorescence ratio is greater than or equal to 1.
yes (1)

Decide: is the reported value of switch fluorescence ratio for `CGGGACTTGT` equal to or greater than 1?
no (0)
